Measured IC50, listed per entry for reference.
Tested on: tracheal smooth muscle from guinea pigs (contraction induced by 3 × 10^−6 mol/L of CCh)
Test: Antagonism in vitro of contraction of isolated tracheal smooth muscle from guinea pigs induced by carbachol (CCh)
Type: cell-based, guinea pig
Settings: Cavia porcellus, 3 × 10^−6 mol/L of CCh; cumulative dosing; read-out: IC50 (μM), antagonism in vitro against the contraction of the tracheal smooth muscle induced by CCh
experimental endpoint: IC50

[
  {
    "molecule": "OC(CO[C@H]1C[N+]2(CCCOc3ccccc3)CCC1CC2)(c1ccccc1)C1CCCCC1 (some centres unmarked)",
    "value reported": "1.36 µM"
  },
  {
    "molecule": "OC(CO[C@@H]1C[N+]2(COCOc3ccccc3)CCC1CC2)(c1ccccc1)C1CCCC1.[Cl-] (some centres unmarked)",
    "value reported": "0.0264 µM"
  },
  {
    "molecule": "OC(CO[C@H]1C[N+]2(CCCOc3ccccc3)CCC1CC2)(c1ccccc1)C1CCC1 (some centres unmarked)",
    "value reported": "0.917 µM"
  }
]

---

Test system: bronchus in guinea pigs (contractile response induced by Mch)
Test: Antagonism of contractile response of bronchus in guinea pigs induced by methacholine (Mch); airway resistance and pulmonary dynamic compliance
Assay type: in vivo, guinea pig
Conditions: 1 μg/kg dropped in the airway, Mch 10 μg/kg iv after 30 min; Mean ± S.E.M

[
  {
    "compound": "O[C@@](COC1C[N+]2(CCCOc3ccccc3)CCC1CC2)(c1ccccc1)C1CCCCC1.[Br-] (stereo partly shown)",
    "units label": "cm H2O/ml/s",
    "Raw (cm H2O/ml/s)": 0.745
  },
  {
    "compound": "O[C@@](CO[C@@H]1C[N+]2(CCOc3ccccc3)CCC1CC2)(c1ccccc1)C1CCCC1.[Br-]",
    "units label": "cm H2O/ml/s",
    "Raw (cm H2O/ml/s)": 0.739
  },
  {
    "compound": "OC(CO[C@@H]1C[N+]2(CCCOc3ccccc3)CCC1CC2)(c1ccccc1)C1CCCC1.[Br-] (stereo partly shown)",
    "units label": "cm H2O/ml/s",
    "Raw (cm H2O/ml/s)": 0.733
  },
  {
    "compound": "OC(CO[C@H]1C[N+]2(CCCOc3ccccc3)CCC1CC2)(c1ccccc1)C1CCC1.[Br-] (stereo partly shown)",
    "units label": "cm H2O/ml/s",
    "Raw (cm H2O/ml/s)": 0.719
  }
]

---

Test system: tracheal smooth muscle from guinea pigs (contraction induced by 3 × 10^−6 mol/L of CCh)
Assay: Antagonism in vitro of contraction of isolated tracheal smooth muscle from guinea pigs induced by carbachol (CCh)
Format: cell-based, guinea pig
Details: read-out: Resistance to the contraction of smooth muscle from guinea pigs in vitro, IC50; 3 × 10^−6 mol/L of CCh; Table 5
pIC50: −log10 of the molar value.
experimental endpoint: pIC50

[
  {
    "compound": "OC(COC1C[N+]2(CCCOc3ccccc3)CCC1CC2)(c1ccccc1)C1CCCC1 (stereo not shown) [Example 48]",
    "value reported": 5.93
  }
]

---

Test system: m1, m2 and m3 subtypes of M receptor
Test: Competitive [3H]-QNB binding on membranes of CHO cells transfected with m1, m2, m3; selectivity on subtypes of M receptor
Conditions: ratio of Ki, n = 6
Selectivity m1/m2, Mx/My = Ki(y)/Ki(x) vs 10: less than gives True; not less than gives False.

[
  {
    "compound": "CN1CCN(CC(=O)N2c3ccccc3C(=O)Nc3cccnc32)CC1 [Pirenzepine, reference compound]",
    "classification": "False"
  },
  {
    "compound": "OC(CO[C@H]1C[N+]2(CCCOc3ccccc3)CCC1CC2)(c1ccccc1)C1CCCC1.[Br-] (stereo partly shown)",
    "classification": "False"
  },
  {
    "compound": "C[N+]1(C)CCC(OC(=O)C(c2ccccc2)c2ccccc2)CC1.[I-] [Example 4-DAMP, 4-DAMP, reference compound]",
    "classification": "True"
  },
  {
    "compound": "OC(CO[C@@H]1C[N+]2(CCCOc3ccccc3)CCC1CC2)(c1ccccc1)C1CCCC1.[Br-] (stereo partly shown)",
    "classification": "False"
  },
  {
    "compound": "OC(CO[C@@H]1C[N+]2(CCCOc3ccccc3)CCC1CC2)(c1ccccc1)C1CCC1.[Br-] (stereo partly shown)",
    "classification": "False"
  },
  {
    "compound": "CC[N+](CC)(CC)CCOc1cccc(OCC[N+](CC)(CC)CC)c1OCC[N+](CC)(CC)CC [Gallamine, reference compound]",
    "classification": "True"
  },
  {
    "compound": "OC(CO[C@H]1C[N+]2(CCCOc3ccccc3)CCC1CC2)(c1ccccc1)C1CCC1.[Br-] (stereo partly shown)",
    "classification": "False"
  }
]

These data points were gathered from patent US9751875B2.
